# studyTarget: human DGKα (Homo sapiens, UniProt P23743)
# Construct: TVMV protease cleavage site (C); Hexa-His (C)
# Sequence (P23743 with tags, fused parts or gaps): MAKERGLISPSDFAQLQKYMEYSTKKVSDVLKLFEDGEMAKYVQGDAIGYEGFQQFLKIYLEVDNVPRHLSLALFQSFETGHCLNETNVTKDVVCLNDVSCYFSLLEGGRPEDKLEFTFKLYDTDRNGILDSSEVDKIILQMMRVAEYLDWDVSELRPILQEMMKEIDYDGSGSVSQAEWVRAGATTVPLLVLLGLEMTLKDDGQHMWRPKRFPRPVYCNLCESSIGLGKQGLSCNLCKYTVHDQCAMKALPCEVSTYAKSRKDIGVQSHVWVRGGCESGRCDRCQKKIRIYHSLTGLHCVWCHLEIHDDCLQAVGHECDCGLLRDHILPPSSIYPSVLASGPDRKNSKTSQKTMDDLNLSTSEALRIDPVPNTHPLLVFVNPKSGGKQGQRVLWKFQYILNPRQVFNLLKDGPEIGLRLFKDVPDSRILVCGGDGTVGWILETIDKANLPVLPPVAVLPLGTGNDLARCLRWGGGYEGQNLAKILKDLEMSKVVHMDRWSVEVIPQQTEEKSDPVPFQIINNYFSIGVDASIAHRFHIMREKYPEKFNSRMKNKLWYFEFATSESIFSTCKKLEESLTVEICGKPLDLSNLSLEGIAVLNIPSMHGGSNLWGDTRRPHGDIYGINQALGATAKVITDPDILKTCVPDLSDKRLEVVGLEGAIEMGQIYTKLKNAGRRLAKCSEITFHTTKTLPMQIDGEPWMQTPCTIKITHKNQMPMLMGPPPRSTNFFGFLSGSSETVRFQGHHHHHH
# assayProcedure: In vitro DGK inhibition assay, DGKα liposome (LIPGLO) assay
# condition: read-out: Enzyme Inhibition DGKalpha IC50
pIC50: −log10 of the molar value.
reportedMetric: pIC50

Would you please look over these solved cases?
# smilesRepresentation, pIC50
records = [
    ("Cn1c(=O)cc(N(CC2CC2)c2cccc(-c3ccccc3)c2)c2nc(C#N)ccc21", 6.77),
    ("CN(C)c1ccc(-c2ccc(N(CC3CC3)c3cc(=O)n(C)c4ccc(C#N)nc34)cc2)cc1", 5.96),
    ("Cc1cccc(-c2ccc(N(CC3CC3)c3cc(=O)n(C)c4ccc(C#N)nc34)cc2)c1", 5.21),
    ("Cc1ccc(N(C)c2cc(=O)n(C)c3ccc(C#N)nc23)cc1", 6.14),
    ("Cn1c(=O)cc(N(CC2CC2)c2ccc(-c3cccc(C(N)=O)c3)cc2)c2nc(C#N)ccc21", 4.74),
]

[1] Cn1c(=O)cc(N(CC2CC2)c2ccc(C3CC3)c(-c3ccc(C4CC4)cc3)c2)c2nc(C#N)ccc21
[2] Cn1c(=O)cc(N(CC2CC2)c2ccc(OC(F)F)c(C#N)c2)c2nc(C#N)ccc21
[3] Cn1c(=O)cc(N(CC2CC2)[C@H]2CC[C@H](c3ccccc3)CC2)c2nc(C#N)ccc21
[4] Cn1c(=O)cc(N(CC2CC2)c2ccc(-n3cccc3)cc2)c2nc(C#N)ccc21
Ask: Arrange items by their pIC50 values in increasing order. Your task in answering is to list the labels in the requested order.
Result: 1, 3, 2, 4
(1: 4.44, 3: 4.80, 2: 5.20, 4: 5.41)

###

# studyTarget: human DGKζ (Homo sapiens, UniProt Q13574)
# Construct: TVMV protease cleavage site (C); Hexa-His (C)
# Sequence (Q13574 with tags, fused parts or gaps isoform Q13574-4): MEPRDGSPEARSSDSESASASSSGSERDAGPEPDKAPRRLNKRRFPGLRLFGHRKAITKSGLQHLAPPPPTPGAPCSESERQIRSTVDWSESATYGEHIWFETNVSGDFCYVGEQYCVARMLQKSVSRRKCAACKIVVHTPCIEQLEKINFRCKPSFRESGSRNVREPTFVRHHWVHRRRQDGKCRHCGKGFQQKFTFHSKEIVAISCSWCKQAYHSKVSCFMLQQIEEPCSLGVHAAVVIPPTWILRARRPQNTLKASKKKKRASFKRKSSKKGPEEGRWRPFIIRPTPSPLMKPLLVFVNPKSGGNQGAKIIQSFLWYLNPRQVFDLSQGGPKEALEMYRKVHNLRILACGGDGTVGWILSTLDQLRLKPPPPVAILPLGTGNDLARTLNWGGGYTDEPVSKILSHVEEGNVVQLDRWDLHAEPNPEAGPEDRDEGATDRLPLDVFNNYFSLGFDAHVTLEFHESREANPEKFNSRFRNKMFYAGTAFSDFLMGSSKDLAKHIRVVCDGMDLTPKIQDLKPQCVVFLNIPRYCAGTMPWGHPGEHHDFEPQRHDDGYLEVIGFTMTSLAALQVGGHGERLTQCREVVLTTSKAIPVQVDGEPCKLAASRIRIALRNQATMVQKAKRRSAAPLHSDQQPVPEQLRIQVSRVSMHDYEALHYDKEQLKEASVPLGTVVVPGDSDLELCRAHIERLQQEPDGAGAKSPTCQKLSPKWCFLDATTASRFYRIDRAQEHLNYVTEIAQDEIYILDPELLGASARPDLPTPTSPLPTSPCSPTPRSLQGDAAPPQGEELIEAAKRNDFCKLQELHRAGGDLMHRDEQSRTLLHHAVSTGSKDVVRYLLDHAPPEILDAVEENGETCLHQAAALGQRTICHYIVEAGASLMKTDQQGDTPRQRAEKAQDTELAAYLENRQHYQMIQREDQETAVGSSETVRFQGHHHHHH
# assayProcedure: In vitro DGK inhibition assay, DGKζ liposome (LIPGLO) assay
# condition: read-out: Enzyme Inhibition DGKzeta IC50
reportedMetric: IC50 (µM)

# compound, resultUnit, IC50
measured = [
    ("Cc1ccccc1-c1cccc(N(CC2CC2)c2cc(=O)n(C)c3ccc(C#N)nc23)c1", "µM", 9.2),
    ("CN(C)C(=O)c1cccc(-c2ccc(N(CC3CC3)c3cc(=O)n(C)c4ccc(C#N)nc34)cc2)c1", "µM", 0.88),
    ("Cn1c(=O)cc(N(CC2CC2)c2cccc(-c3cccc(C(N)=O)c3)c2)c2nc(C#N)ccc21", "µM", 5.2),
    ("Cc1cccc(N(C)c2cc(=O)n(C)c3ccc(C#N)nc23)c1", "µM", 4.7),
    ("Cn1c(=O)cc(N(CC2CC2)c2ccc(-c3cccc(Cl)c3)cc2)c2nc(C#N)ccc21", "µM", 2.1),
    ("Cn1c(=O)cc(N(CC2CC2)c2ccc(C(F)(F)F)cc2)c2nc(C#N)ccc21", "µM", 1.1),
    ("Cn1c(=O)cc(N(CC2CC2)c2ccc(-c3ccccc3O)cc2)c2nc(C#N)ccc21", "µM", 1.3),
    ("Cc1ccccc1-c1ccc(N(CC2CC2)c2cc(=O)n(C)c3ccc(C#N)nc23)cc1", "µM", 0.88),
]

[a] Cc1cccc(-c2ccc(N(CC3CC3)c3cc(=O)n(C)c4ccc(C#N)nc34)cc2)c1
[b] Cn1c(=O)cc(N(CC2CC2)c2ccc(F)cc2)c2nc(C#N)ccc21
Ask: Among a and b , which shows a numerically higher IC50 result? Lab log: write the label of the selected item as the result.
Result: b
